Tested on: OVCAR-8 ovarian
assay_procedure: NCI tumour cell line growth inhibition, 48 h
Overview of recorded GI50 for various molecules

Solved entries (count: 3):
### Prompt Requested field: GI50. Item: "O=C(Oc1c(Cl)cc(Cl)cc1Cl)c1ccccc1Nc1ccnc(C(F)(F)F)c1"
### Response 3.04 µM

### Prompt Same read-out for "Clc1ccc(-c2nc(NCc3ccco3)c3ccccc3n2)c(Cl)c1" ?
### Response 24.2 µM

### Prompt Same read-out for "COc1ccc(-c2[nH]ncc2Nc2cc(OC)c(OC)c(OC)c2)cc1" ?
### Response 6.36 µM

More entries:
### Prompt Requested field: GI50. Item: "C[C@]12CCC(=O)C[C@@H]1CC[C@@H]1[C@@H]2CC[C@]2(C)[C@@H](OC(=O)N(CCCl)N=O)CC[C@@H]12"
### Response 1.36 µM

### Prompt Same read-out for "COc1cnccc1Nc1nc(-c2nn(Cc3c(F)cc(OCCO)cc3F)c3ccccc23)ncc1OC" ?
### Response 2.03 µM
